Molecular target: T1, monkey NPR1 extracellular domain expressed with a C-terminal myc-myc-hexahistidine (mfNPR1-MMH) (monkey, UniProt P16066 33-473 (human entry))
T1 construct: also called monomeric monkey NPR1
T1 chain: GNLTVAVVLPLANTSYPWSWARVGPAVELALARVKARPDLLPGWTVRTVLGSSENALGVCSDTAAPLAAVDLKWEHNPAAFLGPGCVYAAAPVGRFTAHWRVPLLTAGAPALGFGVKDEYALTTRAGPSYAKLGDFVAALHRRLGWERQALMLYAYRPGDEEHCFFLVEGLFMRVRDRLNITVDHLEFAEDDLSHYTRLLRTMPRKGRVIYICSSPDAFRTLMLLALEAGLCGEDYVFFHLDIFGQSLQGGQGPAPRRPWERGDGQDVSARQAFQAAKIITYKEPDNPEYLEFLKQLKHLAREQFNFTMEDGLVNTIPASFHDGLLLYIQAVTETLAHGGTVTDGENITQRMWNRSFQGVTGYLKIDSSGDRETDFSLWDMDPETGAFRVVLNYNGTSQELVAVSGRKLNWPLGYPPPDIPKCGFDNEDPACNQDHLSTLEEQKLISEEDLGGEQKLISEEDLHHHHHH
Assay: SPR, mAb captured, 37 C
Parameter log10 t½: see the listing below.
quantity_kind: log10 t½ (log10 of the value in min)

binder="mAb22033 (antibody, V domains shown) VH: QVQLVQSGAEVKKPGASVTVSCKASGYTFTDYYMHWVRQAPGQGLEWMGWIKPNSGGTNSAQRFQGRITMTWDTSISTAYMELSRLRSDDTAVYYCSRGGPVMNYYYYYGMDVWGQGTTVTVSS VL: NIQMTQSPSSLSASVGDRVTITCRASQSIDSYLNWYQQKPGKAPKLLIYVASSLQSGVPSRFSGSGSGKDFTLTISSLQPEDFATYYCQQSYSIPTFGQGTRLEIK" quantity_kind="log10 t½" observed_measurement=1.22
binder="mAb25508 (antibody, V domains shown) VH: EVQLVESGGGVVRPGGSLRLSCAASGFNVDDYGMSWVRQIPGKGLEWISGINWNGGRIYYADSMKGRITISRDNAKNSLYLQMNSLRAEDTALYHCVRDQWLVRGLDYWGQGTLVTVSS VL: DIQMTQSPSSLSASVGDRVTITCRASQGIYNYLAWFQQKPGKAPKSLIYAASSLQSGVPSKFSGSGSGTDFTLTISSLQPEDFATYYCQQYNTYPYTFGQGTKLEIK" quantity_kind="log10 t½" observed_measurement=1.63
binder="mAb25479 (antibody, V domains shown) VH: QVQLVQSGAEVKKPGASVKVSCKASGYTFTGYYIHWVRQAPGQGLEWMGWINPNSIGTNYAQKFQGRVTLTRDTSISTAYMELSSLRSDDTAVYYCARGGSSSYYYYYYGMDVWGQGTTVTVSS VL: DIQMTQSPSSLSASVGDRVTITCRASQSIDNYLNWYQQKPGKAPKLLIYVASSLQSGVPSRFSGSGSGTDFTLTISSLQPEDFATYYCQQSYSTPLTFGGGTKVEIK" quantity_kind="log10 t½" observed_measurement=-0.10
binder="mAb25497 (antibody, V domains shown) VH: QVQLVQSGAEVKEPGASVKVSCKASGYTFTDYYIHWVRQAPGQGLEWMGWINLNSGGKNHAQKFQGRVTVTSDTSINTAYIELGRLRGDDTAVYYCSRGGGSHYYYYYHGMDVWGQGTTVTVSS VL: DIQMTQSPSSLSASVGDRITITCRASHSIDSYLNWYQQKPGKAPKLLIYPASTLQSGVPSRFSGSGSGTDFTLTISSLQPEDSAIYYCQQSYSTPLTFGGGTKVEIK" quantity_kind="log10 t½" observed_measurement=0.48
binder="mAb22035 (antibody, V domains shown) VH: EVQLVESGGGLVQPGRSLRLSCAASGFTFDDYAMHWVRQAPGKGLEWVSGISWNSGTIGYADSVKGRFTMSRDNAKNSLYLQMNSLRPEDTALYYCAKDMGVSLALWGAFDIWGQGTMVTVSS VL: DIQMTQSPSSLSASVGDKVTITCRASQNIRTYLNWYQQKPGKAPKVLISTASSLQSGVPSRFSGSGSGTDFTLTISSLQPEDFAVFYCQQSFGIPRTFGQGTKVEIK" quantity_kind="log10 t½" observed_measurement=1.49
binder="mAb25491 (antibody, V domains shown) VH: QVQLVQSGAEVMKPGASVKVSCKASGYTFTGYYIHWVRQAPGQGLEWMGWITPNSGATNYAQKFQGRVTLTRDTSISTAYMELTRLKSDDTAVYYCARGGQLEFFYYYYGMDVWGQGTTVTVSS VL: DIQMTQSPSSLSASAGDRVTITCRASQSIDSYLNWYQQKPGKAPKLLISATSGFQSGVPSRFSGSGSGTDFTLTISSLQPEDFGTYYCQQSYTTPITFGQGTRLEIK" quantity_kind="log10 t½" observed_measurement=0.40
